- Tested on: P. aeruginosa ATCC 27853
- Measurement protocol: CLSI broth dilution MIC determination
- Type: cell-based
- Assay setup: Pseudomonas aeruginosa, ATCC27853; P. aeruginosa ATCC 27853 (MP-3); read-out: MIC
Kindly supply the reported MIC values for the records listed here.

CC[C@H]1OC(=O)[C@@](C)(F)C(=O)[C@H](C)[C@@H](O[C@@H]2OC(C)CC(N(C)C)C2O)[C@](C)(OC)C[C@@H](C)C(=O)[C@H](C)[C@H]2N(CC#CCn3cc(-c4cnccn4)nn3)C(=O)O[C@]12C (stereo partly shown) yielded MIC of > 64 µg/mL

CC[C@H]1OC(=O)[C@@](C)(F)C(=O)[C@H](C)[C@@H](O[C@@H]2OC(C)CC(N(C)C)C2O)[C@](C)(OC)C[C@@H](C)C(=O)[C@H](C)[C@H]2N(CC#CCn3cc(-c4cncc(N)n4)nn3)C(=O)O[C@]12C (stereo partly shown) yielded MIC of > 64 µg/mL

CC[C@H]1OC(=O)[C@H](C)C(=O)[C@H](C)[C@@H](O[C@@H]2OC(C)CC(N(C)C)C2O)[C@](C)(OC)C[C@@H](C)C(=O)C[C@H]2N(CCCCn3cc(-c4cccc(N)c4)nn3)C(=O)O[C@]12C (stereo partly shown) yielded MIC of > 32 µg/mL

CC[C@H]1OC(=O)[C@@H](C)C(=O)[C@H](C)[C@@H](O[C@@H]2OC(C)CC(N(C)C)C2O)[C@](C)(OC)C[C@@H](C)C(=O)[C@H](C)[C@H]2N(C/C=C/Cn3cc(-c4cccc(N)c4)nn3)C(=O)O[C@]12C (stereo partly shown) yielded MIC of > 32 µg/mL
